Origin of measurements: ChEMBL document CHEMBL1129103

log10(MIC) by entry:
tested on: Human alphaherpesvirus 1; experiment: Compound was tested for antiherpes activity against Herpes simplex virus-1(KOS) in E6SM cell cultures; type: functional
// stored as log10 of MIC expressed in µg/mL

// solved cases for log10(MIC) follow
Nc1nc2c(ncn2COC(CO)CO)c(=O)[nH]1 [GANCICLOVIR]; -3.15
O=c1[nH]c(=O)n(C2COC(CO)C(O)C2O)cc1I (stereo not given); 0.85

Task: What value of log10(MIC) has been recorded for this entry: Nc1ccn(C2COC(CO)C(O)C2O)c(=O)n1 (stereo not given)
Result: 1.85

Task: What value of log10(MIC) has been recorded for this entry: O=c1ccn(C2COC(CO)C(O)C2O)c(=O)[nH]1 (stereo not given)
Result: 2.18

Task: What value of log10(MIC) has been recorded for this entry: Nc1nc2c(ncn2COCCO)c(=O)[nH]1 [ACYCLOVIR]
Result: -2.40
